- System: OVCAR-8
- assay: NCI tumour cell line growth inhibition, 48 h
Active and inactive are the calls of the source. No stated cut-off is given here; in the data, active = GI50 up to about 1.1 µM and inactive = higher.
experimental_readout: GI50

INSERT INTO results (molecule, experimental_readout, reading) VALUES
  ('CC1C(NNc2ccccc2)Oc2cc3c(cc2C1c1ccccc1O)OCO3 (stereo unspecified)', 'GI50', '10 µM (inactive)'),
  ('COc1nc(N)nc2nc[nH]c12', 'GI50', '> 500 µM (inactive)'),
  ('CNC(=S)NN=C1NCCCN1', 'GI50', '> 100 µM (inactive)'),
  ('CCOC(=O)CC(NC(=O)c1ccc(/N=N/N(C)C)cc1)C(=O)OCC (stereo unspecified)', 'GI50', '> 100 µM (inactive)'),
  ('CCOC(=O)c1nc2cc(C(F)(F)F)ccc2nc1Oc1ccc(F)cc1', 'GI50', '> 100 µM (inactive)'),
  ('CCCCCCCC(CC(=O)NC(CO)C(=O)NC(CO)CC(C)C)OC(=O)CC(CCCCCCC)OC(=O)CC(CCCCCCC)OC1OC(C)C(O)C(OC2OC(C)C(O)C(O)C2OC(C)=O)C1O (stereo unspecified)', 'GI50', '7.35 µM (inactive)'),
  ('O=C1OCCC[C@H]2O[C@@H](COCc3ccccc3)C[C@@H]12', 'GI50', '> 100 µM (inactive)'),
  ('CCCCOC(=O)NC(=O)c1cn(CCCOC(=O)NCCCCCCNC(=O)OCCCn2cc(C(=O)NC(=O)OCCCC)c(=O)[nH]c2=O)c(=O)[nH]c1=O', 'GI50', '> 100 µM (inactive)'),
  ('Nc1ccc(/C=C/c2ccnc3ccccc23)cc1', 'GI50', '21.8 µM (inactive)'),
  ('O=c1[nH]cnc2c1ncn2C1SC(CO)C(O)C1O (stereo unspecified)', 'GI50', '> 100 µM (inactive)'),
  ('COc1cccc(NC(=O)c2c(N)n[nH]c2SC)c1', 'GI50', '> 100 µM (inactive)');
